Test: Octanol-water partition coefficient, log P of the compound
Format: physicochemical
measurementType: logP
Form field (numeric): enter value without unit.

Reported logP, compound Clc1ccc(Cl)cc1 [1,4-DICHLOROBENZENE] : ____
3.5
